Attribution: ChEMBL document CHEMBL2177049

- SYSTEM NAME: Orotidine 5'-phosphate decarboxylase (Methanobacterium thermoautotrophicum, UniProt O26232)
- Sequence (O26232 whole entry): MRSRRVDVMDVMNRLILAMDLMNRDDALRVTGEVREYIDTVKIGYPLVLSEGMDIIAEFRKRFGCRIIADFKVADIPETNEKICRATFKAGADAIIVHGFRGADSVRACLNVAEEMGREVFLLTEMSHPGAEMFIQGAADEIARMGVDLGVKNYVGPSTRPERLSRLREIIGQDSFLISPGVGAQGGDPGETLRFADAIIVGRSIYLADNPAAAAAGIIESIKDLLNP
Listed here are compounds together with their documented pKi.
// field semantics: pKi = negative decimal log of concentration (mol/L)

Sample records with pKi:
O=c1ccn([C@@H]2O[C@H](COP(=O)(O)O)[C@@H](O)[C@H]2O)c(=O)[nH]1	3.48
Nc1ccn([C@@H]2O[C@H](COP(=O)(O)O)[C@@H](O)[C@H]2O)c(=O)[n+]1[O-]	4.95

Moving on to the next compound.
Enquiry: Using the record for Nc1ccn([C@@H]2O[C@H](COP(=O)(O)O)[C@@H](O)[C@H]2O)c(=O)n1 , report its pKi.
Return: 2.92

----------
Here we list molecules with their recorded Ki when tested on Orotidine phosphate decarboxylase (Plasmodium falciparum, UniProt Q8T6J6).
Sequence (Q8T6J6 whole entry): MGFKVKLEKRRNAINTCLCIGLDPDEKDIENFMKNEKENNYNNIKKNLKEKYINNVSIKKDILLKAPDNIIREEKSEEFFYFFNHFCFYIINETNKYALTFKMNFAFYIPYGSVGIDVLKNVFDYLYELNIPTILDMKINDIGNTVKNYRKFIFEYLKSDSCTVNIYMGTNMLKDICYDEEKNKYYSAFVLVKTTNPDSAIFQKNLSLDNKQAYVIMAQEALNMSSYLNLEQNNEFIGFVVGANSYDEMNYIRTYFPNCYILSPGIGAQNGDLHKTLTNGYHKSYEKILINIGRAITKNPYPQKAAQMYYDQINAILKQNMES
Unit µM implied. Number only.

Nc1ccn([C@@H]2O[C@H](COP(=O)(O)O)[C@@H](O)[C@H]2O)c(=O)[n+]1[O-]	22.1

Moving on to the next molecule.
Enquiry: Using the record for O=c1ccn([C@@H]2O[C@H](COP(=O)(O)O)[C@@H](O)[C@H]2O)c(=O)[nH]1 , report its Ki.
Return: 210
